System: SKBR-3
methodNotes: MTT assay, SKBR-3 breast cancer cells
Assay type: cell-based
experimentalContext: Homo sapiens, SK-BR-3; 72 h, MTT, mean of three independent experiments ± SEM
recordedMetric: log10 of GI50 (log10 of the value in µM)
The figures below represent log10 of GI50, where GI50 is stated in µM.

Q: Request - read-out log10 of GI50 | tested on SKBR-3 | molecule CN(C)c1ccc(-c2nc(N)nc(Nc3ccccc3)n2)cc1
Result: 0.62

Q: Now this one: COc1ccc(-c2nc(N)nc(Nc3cccc(C)c3)n2)cc1
Result: 0.53

Q: Now this one: COc1ccc(Nc2nc(N)nc(-c3cccc(F)c3)n2)cc1
Result: 1.22

Q: Now this one: CN(C)c1ccc(-c2nc(N)nc(Nc3ccccc3F)n2)cc1
Result: -0.54

Q: Now this one: Cc1ccc(Nc2nc(N)nc(-c3cccc(C)c3)n2)cc1
Result: 0.10

Q: Now this one: COc1ccc(-c2nc(N)nc(Nc3ccccc3OC)n2)cc1
Result: 0.33
